# Subject Of Test: human FXR (NR1H4) (Homo sapiens, UniProt Q96RI1)
# Construct: host or cells: CHO (Chinese hamster ovary) reporter cells
# Sequence (Q96RI1 1-486): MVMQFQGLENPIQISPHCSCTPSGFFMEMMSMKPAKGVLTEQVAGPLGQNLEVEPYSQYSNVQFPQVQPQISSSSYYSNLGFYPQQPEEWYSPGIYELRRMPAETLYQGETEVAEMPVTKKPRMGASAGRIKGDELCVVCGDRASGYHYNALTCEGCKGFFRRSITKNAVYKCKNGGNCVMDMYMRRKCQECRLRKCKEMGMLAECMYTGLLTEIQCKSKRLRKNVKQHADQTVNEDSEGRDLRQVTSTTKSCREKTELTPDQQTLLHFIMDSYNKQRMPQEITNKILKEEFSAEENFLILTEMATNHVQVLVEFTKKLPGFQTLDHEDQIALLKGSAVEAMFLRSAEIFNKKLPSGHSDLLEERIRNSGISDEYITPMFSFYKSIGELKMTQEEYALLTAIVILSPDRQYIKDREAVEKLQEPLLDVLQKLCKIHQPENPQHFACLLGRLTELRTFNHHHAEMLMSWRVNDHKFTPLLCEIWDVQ
# Test Details: Human FXR (NR1H4) Assay (Gal4 promoter driven luciferase reporter, CHO cells)
# Type: cell-based
# Experimental Conditions: efficacy normalized to CDCA set as 100%
Recorded Efficacy (%) values for a group of molecules are listed next.
Provide the reading as a plain figure in %.

molecule="CC[C@H]1[C@@H](O)[C@@H]2[C@H](CC[C@]3(C)[C@@H]([C@H](C)CCCCS(N)(=O)=O)CC[C@@H]23)[C@@]2(C)CC[C@@H](O)C[C@@H]12 [Example 15]" observed_value=195

Look up and report measured Efficacy (%) for this entry: CC(C)N(O)C(=O)CC[C@@H](C)[C@H]1CC[C@H]2[C@@H]3[C@H](O)C[C@@H]4C[C@H](O)CC[C@]4(C)[C@H]3CC[C@]12C [Example 2] 13

Look up and report measured Efficacy (%) for this entry: CC[C@H]1[C@@H](O)[C@@H]2[C@H](CC[C@]3(C)[C@@H]([C@H](C)CCC(=O)N(O)Cc4ccccc4)CC[C@@H]23)[C@@]2(C)CC[C@@H](O)C[C@@H]12 [Example 4] 270

* * *

# Subject Of Test: human FXR (NR1H4) (Homo sapiens)
# Construct: host or cells: CHO (Chinese hamster ovary) reporter cells
# Test Details: Human FXR (NR1H4) Assay (Gal4 promoter driven luciferase reporter, CHO cells)
# Format: cell-based
# Experimental Conditions: efficacy normalized to CDCA set as 100%
Recorded Metric: Efficacy (%)
Provide the reading as a plain figure in %.

Use these answered entries as a reference point.
compound="CC[C@H]1[C@@H](O)[C@@H]2[C@H](CC[C@]3(C)[C@@H]([C@H](C)CC=CS(N)(=O)=O)CC[C@@H]23)[C@@]2(C)CC[C@@H](O)C[C@@H]12 [Example 17]" recorded_metric="Efficacy (%)" measurement_units=% observed_value=147
compound="CC[C@H]1[C@@H](O)[C@@H]2[C@H](CC[C@]3(C)[C@@H]([C@H](C)CC=CCS(N)(=O)=O)CC[C@@H]23)[C@@]2(C)CC[C@@H](O)C[C@@H]12 [Example 14]" recorded_metric="Efficacy (%)" measurement_units=% observed_value=167
compound="CC[C@H]1[C@@H](O)[C@@H]2[C@H](CC[C@]3(C)[C@@H]([C@H](C)CCOP(=O)(O)c4ccccc4)CC[C@@H]23)[C@@]2(C)CC[C@@H](O)C[C@@H]12 [Example 24]" recorded_metric="Efficacy (%)" measurement_units=% observed_value=75
compound="CC[C@H]1[C@@H](O)[C@@H]2[C@H](CC[C@]3(C)[C@@H]([C@H](C)CCS(=O)(=O)NCc4ccc(OC)cc4)CC[C@@H]23)[C@@]2(C)CC[C@@H](O)C[C@@H]12 [Example 20]" recorded_metric="Efficacy (%)" measurement_units=% observed_value=60

Look up and report measured Efficacy (%) for this entry: CC[C@H]1[C@@H](O)[C@@H]2[C@H](CC[C@]3(C)[C@@H]([C@H](C)CCS(=O)(=O)NC(C)=O)CC[C@@H]23)[C@@]2(C)CC[C@@H](O)C[C@@H]12 [Example 21] 74

* * *

# Subject Of Test: human FXR (NR1H4) (Homo sapiens, UniProt Q96RI1)
# Construct: host or cells: CHO (Chinese hamster ovary) reporter cells
# Test Details: Human FXR (NR1H4) Assay (Gal4 promoter driven luciferase reporter, CHO cells)
# Assay type: cell-based
# Experimental Conditions: efficacy normalized to CDCA set as 100%
Classification field: enter yes for Efficacy (%) values not below 20%, no for values below it.

Below are worked cases with known answers.
compound="CC[C@H]1[C@@H](O)[C@@H]2[C@H](CC[C@]3(C)[C@@H]([C@H](C)/C=C/S(=O)(=O)NCc4ccc(OC)cc4)CC[C@@H]23)[C@@]2(C)CC[C@@H](O)C[C@@H]12 [Example 18]" group_label=no
compound="CC[C@H]1[C@@H](O)[C@@H]2[C@H](CC[C@]3(C)[C@@H]([C@H](C)CCS(=O)(=O)NC(=O)c4ccccc4)CC[C@@H]23)[C@@]2(C)CC[C@@H](O)C[C@@H]12 [Example 22]" group_label=yes
compound="CC[C@H]1[C@@H](O)[C@@H]2[C@H](CC[C@]3(C)[C@@H]([C@H](C)CCS(=O)(=O)N(Cc4ccc(OC)cc4)Cc4ccc(OC)cc4)CC[C@@H]23)[C@@]2(C)CC[C@@H](O)C[C@@H]12 [Example 12]" group_label=no

Entry CC[C@H]1[C@@H](O)[C@@H]2[C@H](CC[C@]3(C)[C@@H]([C@H](C)CCCS(=O)(=O)[O-])CC[C@@H]23)[C@@]2(C)CC[C@@H](O)C[C@@H]12.[Na+] [Example 10] : is its Efficacy (%) no less than 20%? no

Entry CC[C@H]1[C@@H](O)[C@@H]2[C@H](CC[C@]3(C)[C@@H]([C@H](C)CCCc4cc(F)c(O)c(F)c4)CC[C@@H]23)[C@@]2(C)CC[C@@H](O)C[C@@H]12 [Example 9] : is its Efficacy (%) no less than 20%? yes

* * *

# Subject Of Test: human FXR (NR1H4) (Homo sapiens, UniProt Q96RI1)
# Test Details: Human FXR (NR1H4) Assay (Gal4 promoter driven luciferase reporter, CHO cells)
pEC50: −log10 of the molar value.
Recorded pEC50 values for a group of compounds are listed next.

Use these answered entries as a reference point.
compound=CC[C@H]1[C@@H](O)[C@@H]2[C@H](CC[C@]3(C)[C@@H]([C@H](C)CCCS(N)(=O)=O)CC[C@@H]23)[C@@]2(C)CC[C@@H](O)C[C@@H]12 subject_of_test="human FXR (NR1H4) (Homo sapiens, UniProt Q96RI1)" observed_value="5.00 to 6.00"
compound=CC[C@H]1[C@@H](O)[C@@H]2[C@H](CC[C@]3(C)[C@@H]([C@H](C)/C=C/S(=O)(=O)NCc4ccc(OC)cc4)CC[C@@H]23)[C@@]2(C)CC[C@@H](O)C[C@@H]12 subject_of_test="human FXR (NR1H4) (Homo sapiens, UniProt Q96RI1)" observed_value="5.00 to 6.00"
compound=CC[C@H]1[C@@H](O)[C@@H]2[C@H](CC[C@]3(C)[C@@H]([C@H](C)CC=CS(N)(=O)=O)CC[C@@H]23)[C@@]2(C)CC[C@@H](O)C[C@@H]12 subject_of_test="human FXR (NR1H4) (Homo sapiens, UniProt Q96RI1)" observed_value="6.00 to 7.00"
compound=CC[C@H]1[C@@H](O)[C@@H]2[C@H](CC[C@]3(C)[C@@H]([C@H](C)/C=C/S(N)(=O)=O)CC[C@@H]23)[C@@]2(C)CC[C@@H](O)C[C@@H]12 subject_of_test="human FXR (NR1H4) (Homo sapiens, UniProt Q96RI1)" observed_value="5.00 to 6.00"
compound=CC[C@H]1[C@@H](O)[C@@H]2[C@H](CC[C@]3(C)[C@@H]([C@H](C)CCCS(=O)(=O)[O-])CC[C@@H]23)[C@@]2(C)CC[C@@H](O)C[C@@H]12.[Na+] subject_of_test="human FXR (NR1H4) (Homo sapiens, UniProt Q96RI1)" observed_value="5.00 to 6.00"

Look up and report measured pEC50 for this entry: `CC[C@H]1[C@@H](O)[C@@H]2[C@H](CC[C@]3(C)[C@@H]([C@H](C)CCS(=O)(=O)NC(=O)c4ccccc4)CC[C@@H]23)[C@@]2(C)CC[C@@H](O)C[C@@H]12` 5.00 to 6.00

Look up and report measured pEC50 for this entry: `CC[C@H]1[C@@H](O)[C@@H]2[C@H](CC[C@]3(C)[C@@H]([C@H](C)CCCCS(=O)(=O)N(C)Cc4ccccc4)CC[C@@H]23)[C@@]2(C)CC[C@@H](O)C[C@@H]12` 5.00 to 6.00

Look up and report measured pEC50 for this entry: CCOP(=O)(CCC[C@@H](C)[C@H]1CC[C@H]2[C@@H]3[C@H](O)[C@H](CC)[C@@H]4C[C@H](O)CC[C@]4(C)[C@H]3CC[C@]12C)c1ccccc1 (stereo partly drawn) 6.00 to 7.00

Look up and report measured pEC50 for this entry: `CC[C@H]1[C@@H](O)[C@@H]2[C@H](CC[C@]3(C)[C@@H]([C@H](C)CCS(=O)(=O)N(Cc4ccc(OC)cc4)Cc4ccc(OC)cc4)CC[C@@H]23)[C@@]2(C)CC[C@@H](O)C[C@@H]12` 5.00 to 6.00

Look up and report measured pEC50 for this entry: `CCOP(=O)(CCC[C@@H](C)[C@H]1CC[C@H]2[C@@H]3[C@H](O)[C@H](CC)[C@@H]4C[C@H](O)CC[C@]4(C)[C@H]3CC[C@]12C)OCC` 5.00 to 6.00

Look up and report measured pEC50 for this entry: CCOP(=O)(CC[C@@H](C)[C@H]1CC[C@H]2[C@@H]3[C@H](O)[C@H](CC)[C@@H]4C[C@H](O)CC[C@]4(C)[C@H]3CC[C@]12C)c1ccccc1 (stereo partly drawn) 5.00 to 6.00

Look up and report measured pEC50 for this entry: `C[C@H](CCC(=O)N(O)C1CCCCC1)[C@H]1CC[C@H]2[C@@H]3[C@H](O)C[C@@H]4C[C@H](O)CC[C@]4(C)[C@H]3CC[C@]12C` < 5.00
